# Tested on: HSC1 (primary human Schwann cells)
# method: drug sensitivity score (DSS, CellTiter-Glo viability, 72 h) (DSS (dimensionless)); higher = more sensitive; extreme values may be limits of the assay
Give drug sensitivity score for every item shown.

*Q* What drug sensitivity score value was documented for this molecule, CNC(=O)c1cc(Oc2ccc(NC(=O)Nc3ccc(Cl)c(C(F)(F)F)c3)c(F)c2)ccn1 [Regorafenib] (max concentration tested 10000 nM) ?
*A* 4.61

*Q* Likewise for CS(=O)(=O)OCCCCOS(C)(=O)=O [Busulfan] (max concentration tested 100000 nM) ?
*A* 0

*Q* Likewise for CO[C@@]12[C@H](COC(N)=O)C3=C(C(=O)C(C)=C(N)C3=O)N1C[C@@H]1N[C@@H]12 [Mitomycin C] (max concentration tested 10000 nM) ?
*A* 2.63

*Q* Likewise for O=NN(CCCl)C(=O)NC1CCCCC1 [Lomustine] (max concentration tested 10000 nM) ?
*A* 0

*Q* Likewise for Nc1ccccc1NC(=O)c1ccc(CNc2nccc(-c3cccnc3)n2)cc1 [Mocetinostat] (max concentration tested 10000 nM) ?
*A* 9.63

*Q* Likewise for COc1cc(O)c2c(c1)/C=C/C[C@H](O)[C@H](O)C(=O)/C=C\C[C@H](C)OC2=O [(5Z)-7-Oxozeaenol] (max concentration tested 10000 nM) ?
*A* 6.52

*Q* Likewise for O=C(c1cc(Cc2n[nH]c(=O)c3ccccc23)ccc1F)N1CCN(C(=O)C2CC2)CC1 [Olaparib] (max concentration tested 10000 nM) ?
*A* 3.07

*Q* Likewise for O=C(Nc1ccc2[nH]nc(-c3ccncc3)c2c1)[C@@H]1CCN(CC(=O)N2CCN(c3ccc(-c4ncccn4)cc3)CC2)C1 (max concentration tested 10000 nM) ?
*A* 10.4

*Q* Likewise for CC(C)NC[C@@H](C(=O)N1CCN(c2ncnc3c2[C@H](C)C[C@H]3O)CC1)c1ccc(Cl)cc1 [GDC-0068] (max concentration tested 10000 nM) ?
*A* 0.374

*Q* Likewise for Cc1c(CN2CCN(C(=O)[C@H](C)O)CC2)sc2c(N3CCOCC3)nc(-c3cnc(N)nc3)nc12 [GDC-0980] (max concentration tested 10000 nM) ?
*A* 11.8

*Q* Likewise for NS(=O)(=O)OC[C@@H]1C[C@@H](n2ccc3c(N[C@H]4CCc5ccccc54)ncnc32)C[C@@H]1O [Pevonedistat] (max concentration tested 10000 nM) ?
*A* 12

*Q* Likewise for CNC(=O)c1ccc(N2C(=S)N(c3ccc(C#N)c(C(F)(F)F)c3)C(=O)C23CCC3)cc1F [RD162] (max concentration tested 10000 nM) ?
*A* 0.0127

*Q* Likewise for Cc1nc(C(=O)NCC(=O)O)c(O)c2ccc(Oc3ccccc3)cc12 [FG-4592] (max concentration tested 10000 nM) ?
*A* 0.0901

*Q* Likewise for O=C1c2c(O)ccc(O)c2C(=O)c2c(NCCNCCO)ccc(NCCNCCO)c21 [Mitoxantrone] (max concentration tested 1000 nM) ?
*A* 2.89

*Q* Likewise for COc1cc2ncnc(Nc3ccc(F)c(Cl)c3)c2cc1OCCCN1CCOCC1 [Gefitinib] (max concentration tested 10000 nM) ?
*A* 2.58

*Q* Likewise for O=c1[nH]c(=O)n([C@H]2C[C@H](O)[C@@H](CO)O2)cc1F [Floxuridine] (max concentration tested 10000 nM) ?
*A* 6.07

*Q* Likewise for CC[C@@]1(O)C(=O)OCc2c1cc1n(c2=O)Cc2cc3ccccc3nc2-1 [Camptotechin] (max concentration tested 5000 nM) ?
*A* 22.7
